// data source = the supplement of paper PMC9170038

- Tested on: MS2 coat protein
- Assay Name: apparent KD of MS2 coat protein; designed switch direction (-1 OFF switch, 1 ON switch): -1; higher = weaker reporter binding
- Condition Summary: input ligand: none
Please provide measured apparent KD of MS2 coat protein for the entries that follow.
Your answer is read as nM, so omit the unit and give the number.

[in] Input GCCGGAUAAGUGAGGAUAUGCCUAUGGAUACGUAGGCAGAAGGCACAUGAGGAUCACCCAUGUACCUCUCCGGC [JL-BMX4-4.25 Eli mod] (Eterna round: R97, puzzle: Brourd's mod of Exclusion 4) , output reported apparent KD of MS2 coat protein.
[out] 17.5

[in] Input UAUGUUAGCACAGGAUAUUGUUAUUUUUUUUUUCAAGAAGGGUGUACAUGAGGAUCACCCAUGUUAUGGUUUUAUCUUUUACAA [JR_ExcNG1_Sub012] (Eterna round: R96, puzzle: Exclusion NG 1) , output reported apparent KD of MS2 coat protein.
[out] 809

[in] Input ACAUGUAUUGCAGGAUAUGGGACACAUGAGGAUCACCCAUGUGACUACAUGUCAUGCCACGGGUCUCAGAAGGGUAUGUACAUG [Ex NG2 #41] (Eterna round: R96, puzzle: Exclusion NG 2) , output reported apparent KD of MS2 coat protein.
[out] 14.9
